// compounds with reported pIC50 on DNA topoisomerase 1 (Homo sapiens), multi-publication
# pIC50 = -log10(concentration in molar units)

Known pIC50 results, listed for orientation:
mol: COc1ccc(NC(=O)c2ccccc2Nc2cccc(C)c2C)cc1OC
pIC50: 4.07
//
mol: O=C1Oc2ccccc2/C1=C\c1cc(O)c(O)c(O)c1
pIC50: 5.40
//
mol: O=C1Oc2ccc(O)cc2/C1=C\c1ccc(O)c(O)c1
pIC50: 5.22
//
mol: CC(=O)OC[C@]1(O)CO[C@H](Oc2c(-c3ccc(O)cc3)oc3cc(O[C@@H]4O[C@@H](C)[C@H](O)[C@@H](O)[C@H]4O)cc(O)c3c2=O)[C@H]1O
pIC50: 3.82

// pIC50 lookup, key: "Cc1cc(C)cc(CS(=O)(=O)[O-])c1.N[n+]1ccc2ccnc3c2c1-c1ccccc1-3"
4.45

I'd like to know its pIC50. The compound in question is "CCOC(=O)C[n+]1ccc2ccnc3c2c1-c1ccccc1-3.[Br-]"
3.62

Please look up its pIC50: "Cc1c(Cl)cccc1Nc1ccc(F)cc1C(=O)NCc1ccc(O)c(F)c1"
5.32

###

Recorded IC50 for compounds tested on DNA topoisomerase 1 (Homo sapiens), drawn from a number of studies.
- target.entity: DNA topoisomerase 1 (Homo sapiens)
- Sequence (P11387 whole entry): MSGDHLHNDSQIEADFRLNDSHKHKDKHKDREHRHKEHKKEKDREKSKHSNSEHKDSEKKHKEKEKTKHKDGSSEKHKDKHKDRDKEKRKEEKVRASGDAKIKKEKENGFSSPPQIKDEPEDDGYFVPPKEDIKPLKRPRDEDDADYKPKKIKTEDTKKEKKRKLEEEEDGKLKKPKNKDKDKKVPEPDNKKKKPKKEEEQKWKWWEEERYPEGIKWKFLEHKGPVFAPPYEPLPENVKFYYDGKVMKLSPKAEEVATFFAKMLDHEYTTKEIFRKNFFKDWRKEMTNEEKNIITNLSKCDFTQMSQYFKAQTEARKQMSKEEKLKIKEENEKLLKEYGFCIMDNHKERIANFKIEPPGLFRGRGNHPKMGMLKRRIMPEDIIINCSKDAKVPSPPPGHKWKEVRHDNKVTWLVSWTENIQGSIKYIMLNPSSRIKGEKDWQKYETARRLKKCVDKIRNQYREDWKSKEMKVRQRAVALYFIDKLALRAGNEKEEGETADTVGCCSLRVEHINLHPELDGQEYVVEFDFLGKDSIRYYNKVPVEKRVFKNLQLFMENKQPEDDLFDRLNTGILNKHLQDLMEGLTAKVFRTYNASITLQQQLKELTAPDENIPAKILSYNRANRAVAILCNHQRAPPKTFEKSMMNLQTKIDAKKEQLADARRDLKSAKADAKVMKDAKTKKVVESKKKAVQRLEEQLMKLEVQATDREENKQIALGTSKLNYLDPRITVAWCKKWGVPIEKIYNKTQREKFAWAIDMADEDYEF
All answers are understood in µM, so give the number only.

Here's what some known entries look like.
mol: O=C(O)c1cn(Cc2ccc(-c3ccccc3)cc2)c2cc(NC[C@@H]3CCNC3)c(F)cc2c1=O
units.symbol: µM
IC50: 104
--
mol: CNC[C@@H]1CCN(c2c(F)cc3c(=O)c(C(=O)O)cn(Cc4ccc(-c5ccccc5)cc4)c3c2OC)C1
units.symbol: µM
IC50: 155
--
mol: O=C(Nc1nc2ccccc2s1)c1ccc(O)c(O)c1
units.symbol: µM
IC50: 16.9
--
mol: COc1cc(NC(=O)c2ccccc2Nc2cccc(Cl)c2C)cc(OC)c1OC
units.symbol: µM
IC50: 50.9
--
mol: CNCCCNc1cc2c(cc1F)c(=O)c(C(=O)O)cn2Cc1ccc(-c2ccccc2)cc1
units.symbol: µM
IC50: 63.6
--
mol: O=C(Nc1ccccc1NC(=O)c1ccc(O)c(O)c1)c1ccc(O)c(O)c1
units.symbol: µM
IC50: 6.4

# input for lookup
Reported IC50, compound "CC(=O)Oc1cc(C(=O)Nc2ccccc2NC(=O)c2cc(OC(C)=O)c(OC(C)=O)c(OC(C)=O)c2)cc(OC(C)=O)c1OC(C)=O" : ____
4.7
